Where do these numbers come from? They come from paper PMC5714123.

Molecular target: SMAD3 MH1 (Homo sapiens, UniProt P84022 1-132)
Sequence (P84022 1-132): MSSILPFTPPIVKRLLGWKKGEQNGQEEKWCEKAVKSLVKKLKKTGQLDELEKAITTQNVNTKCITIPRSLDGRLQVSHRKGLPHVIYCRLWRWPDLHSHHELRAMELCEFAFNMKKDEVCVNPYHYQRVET
Test: EMSA; Hill 3.4; EMSA: 25 mM Tris-HCl (pH not given for binding buffer; RNA stock pH 7.5), 115 mM KCl, 1 mM MgCl2, 1 mM DTT, 20 ng/ul poly I:C, 0.1 mg/ml BSA, 10% glycerol, on ice 2 h; 0.5x TBE gel at 4 C
Details: protein: recombinant; tags: 6xHis-SUMO cleaved; label: 5' 32P; hairpin
QUANTITY: pKd
Recall that pKd is obtained by taking minus log10 of the concentration measured in molar.

Ask: Tell me pKd reported for GGACGCUUAUAAAACUGAUGUUGUUCGCAACACCAGUUUAUGGGCGUCC (structured_RNA) [1b hsa-miR-21 central stem dSBE]
Reply: 5.57
